FYI, the data here is from the supplement of paper PMC11451515.

Test system: P12-Ichikawa
EXPERIMENT_DESCRIPTION: cell viability relative to DMSO control; higher = less cytotoxic
CONDITION_LABEL: HPLM + 10% dialyzed FBS; 48 h; 1.71 µM
RECORDED_ENDPOINT: cell viability (%)
Kindly provide the numeric value in % only, without the unit symbol.

>  <COMPOUND>
C=C(c1ccc(C(=O)O)cc1)c1cc2c(cc1C)C(C)(C)CCC2(C)C

>  <EXPERIMENTAL_RESULT>
120

$$$$

Lab note: measured cell viability of `COc1cc(NCc2ccc3nc(N)nc(N)c3c2C)cc(OC)c1OC` was 62.2

Lab note: measured cell viability of CN(C)CCCC1(c2ccc(F)cc2)OCc2cc(C#N)ccc21 (stereo not drawn) was 99.9

* * *

Test system: P12-Ichikawa
EXPERIMENT_DESCRIPTION: cell viability relative to DMSO control; higher = less cytotoxic
CONDITION_LABEL: RPMI 5 mM glucose + 10% dialyzed FBS; 48 h; 5.12 µM
RECORDED_ENDPOINT: cell viability (%)
Kindly provide the numeric value in % only, without the unit symbol.

# example entries with known answers
>  <COMPOUND>
c1cc(-c2cnn3cc(-c4ccc(OCCN5CCCCC5)cc4)cnc23)ccn1

>  <RECORDED_ENDPOINT>
cell viability

>  <UNIT>
%

>  <EXPERIMENTAL_RESULT>
78.2

$$$$
>  <COMPOUND>
CCNC(=O)Nc1ccc(Oc2ncnc(N)c2/C=N/OC)cc1Cl

>  <RECORDED_ENDPOINT>
cell viability

>  <UNIT>
%

>  <EXPERIMENTAL_RESULT>
119

$$$$
>  <COMPOUND>
COc1ccc(F)c(F)c1C(=O)c1cnc(NC2CCN([S+](C)(=O)[O-])CC2)nc1N

>  <RECORDED_ENDPOINT>
cell viability

>  <UNIT>
%

>  <EXPERIMENTAL_RESULT>
58.4

$$$$
>  <COMPOUND>
OC(=O)\C1=C\N(C2CC2)C3=CC(=C(F)C=C3C1=O)N4CCNCC4

>  <RECORDED_ENDPOINT>
cell viability

>  <UNIT>
%

>  <EXPERIMENTAL_RESULT>
99.4

$$$$
>  <COMPOUND>
O=C(/C=C/c1ccc(/C=C/C(=O)Nc2ccc(C3=NCCN3)cc2)cc1)Nc1ccc(C2=NCCN2)cc1

>  <RECORDED_ENDPOINT>
cell viability

>  <UNIT>
%

>  <EXPERIMENTAL_RESULT>
109

$$$$
>  <COMPOUND>
Cc1ccc([C@@H]2O[C@H](CO)[C@@H](O)[C@H](O)[C@H]2O)cc1Cc1ccc(-c2ccc(F)cc2)s1

>  <RECORDED_ENDPOINT>
cell viability

>  <UNIT>
%

>  <EXPERIMENTAL_RESULT>
118

$$$$
>  <COMPOUND>
C=CC(=O)Nc1cc2c(Nc3ccc(F)c(Cl)c3)ncnc2cc1C#CC(C)(C)N1CCN(C)CC1

>  <RECORDED_ENDPOINT>
cell viability

>  <UNIT>
%

>  <EXPERIMENTAL_RESULT>
51

$$$$
>  <COMPOUND>
CCCCCCNC(=O)N1\C=C(F)/C(=O)NC1=O

>  <RECORDED_ENDPOINT>
cell viability

>  <UNIT>
%

>  <EXPERIMENTAL_RESULT>
116

$$$$
>  <COMPOUND>
CN(C)CCCC1(c2ccc(F)cc2)OCc2cc(C#N)ccc21 (configuration not stated)

>  <RECORDED_ENDPOINT>
cell viability

>  <UNIT>
%

>  <EXPERIMENTAL_RESULT>
78.5

$$$$
>  <COMPOUND>
O=C(O)CCCCCC(=O)NN=C1CCCC1

>  <RECORDED_ENDPOINT>
cell viability

>  <UNIT>
%

>  <EXPERIMENTAL_RESULT>
105

$$$$

Lab note: measured cell viability of `CC(C)(N)C(=O)N[C@H](COCc1ccccc1)C(=O)N1CCC2(CC1)CN([S+](C)(=O)[O-])c1ccccc12` was 109

Lab note: measured cell viability of `NC(=O)c1cccc(-c2cc(Nc3ccc(OC(F)(F)F)cc3)ncn2)c1` was 100

Lab note: measured cell viability of `Nc1n[nH]c2nnc(-c3c(-c4ccccc4)nn4ccccc34)cc12` was 132

Lab note: measured cell viability of CCNC(=O)CCC/C=C\C[C@@H]1[C@@H](/C=C/C(O)CCc2ccccc2)[C@@H](O)C[C@@H]1O (some centres not stated) was 111

Lab note: measured cell viability of `Cc1ccc2nc(NCCN)c3ncc(C)n3c2c1` was 103

Lab note: measured cell viability of `CNC(=O)c1ccc2c(c1)NC(=O)/C2=C(\Nc1cccc(CN(C)C)c1)c1ccccc1` was 35.6

Lab note: measured cell viability of `CC[C@H]1OC(=O)[C@H](C)[C@@H](O[C@H]2C[C@@](C)(OC)[C@@H](O)[C@H](C)O2)[C@H](C)[C@@H](O[C@@H]2O[C@H](C)C[C@H](N(C)C)[C@H]2O)[C@](C)(OC)C[C@@H](C)C(=O)[C@H](C)[C@@H](O)[C@]1(C)O` was 90.8
